- Test system: HepG2
- assaySummary: GSK_TCMDC: Percent inhibition of human HepG2 cell line. Test compounds present at 10uM.
- Type: functional
Below: a set of entries, each annotated with reported Inhibition.

smi	measuredOn	Inhibition / %
O=c1cc(NCCCCNCc2cccc(Cl)c2)[nH]c2ccccc12	HepG2	2
CON(C)C(=O)[C@@H](CCCCNC(=O)OCc1ccccc1)NC(=O)OC(C)(C)C	HepG2	5
Nc1c2ccccc2nc2cc(Cl)ccc12	HepG2	24
O=C(Nc1cc(F)cc(-c2cccnc2)c1)c1ccc2c(=O)n(Cc3ccccc3)cnc2c1	HepG2	7
Clc1nc2ccccn2c1C=Cc1ccc2ccccc2n1	HepG2	0
Cc1ccc(O)cc1Nc1c(C(N)=O)cnc2ccc(-c3cncs3)cc12	HepG2	21

* * *

Below: a set of entries, each annotated with reported Inhibition.
- Test system: Plasmodium falciparum
- assaySummary: GSK_TCMDC: Inhibition of Plasmodium falciparum 3D7 in whole red blood cells, using parasite LDH activity as an index of growth. Test compounds present at 2uM
- Assay type: functional
readoutName: Inhibition (%)

molecule	measuredOn	readoutName	quantitativeReadout
CS(=O)(=O)CCNCc1nc(-c2ccc3ncnc(Nc4ccc(OCc5cccc(F)c5)c(Cl)c4)c3c2)cs1.Cl	Plasmodium falciparum	Inhibition	98
Cl.Clc1ccc(CCNCCCCCCNCCc2ccc3c(c2)OCO3)cc1	Plasmodium falciparum	Inhibition	91
C[C@@]12C[C@@H](Nc3nc(NCCc4ccc(O)cc4)nc(N4CCNCC4)n3)C[C@@H](C1)c1cccc(Cl)c1O2.O=C(O)C(F)(F)F	Plasmodium falciparum	Inhibition	100
COc1ccccc1-c1cccc(-c2cccc(NC(=O)c3ccc([N+](=O)[O-])o3)c2)n1	Plasmodium falciparum	Inhibition	97
COc1c(Br)cc(Br)cc1-c1ccc(CN2CC3CCC2CC3)[nH]1.Cl	Plasmodium falciparum	Inhibition	98
Cc1cccc2nc(-c3ccc(-c4cccc(CNCCc5ccncc5)c4)cc3)[nH]c12.O=C(O)C(F)(F)F	Plasmodium falciparum	Inhibition	100
O=C(Nc1ccc(-c2nc3ccccc3[nH]2)cc1)c1cccc(S(=O)(=O)N2CCOCC2)c1	Plasmodium falciparum	Inhibition	89
CCc1c(CCNCC/C=C/CCNCCc2ccc(OC)c(OC)c2CC)ccc(OC)c1OC.Cl	Plasmodium falciparum	Inhibition	100
COc1ccc(CN(C)CCOc2ccc(NC(=O)c3cccc4c(=O)c5cc(SC)ccc5[nH]c34)cc2)cc1OC	Plasmodium falciparum	Inhibition	96
Cc1cccc2nc(-c3ccc(-c4ccc(CN5CCN(C6CCN(C)CC6)CC5)cc4)cc3)[nH]c12.O=C(O)C(F)(F)F	Plasmodium falciparum	Inhibition	100
COc1ccc(NC(=O)Nc2ccc(-c3ccccc3)cc2)cc1Cn1nc(Cl)c(N2CCCNCC2)cc1=O.O=C(O)C(F)(F)F	Plasmodium falciparum	Inhibition	100
COc1ccc(OCC(=O)Nc2cc(-c3nc4ccccc4[nH]3)ccc2Cl)cc1	Plasmodium falciparum	Inhibition	94
CCN(CC)CCCNc1nccc(N(C)c2ccc(NC(=O)Nc3cc(C(F)(F)F)ccc3F)cc2)n1.O=C(O)C(F)(F)F	Plasmodium falciparum	Inhibition	94
O=C(O)C(F)(F)F.c1ccc(-n2ncc(CNCc3ccc(-c4ccc(-c5nc6ccccc6[nH]5)s4)cc3)n2)cc1	Plasmodium falciparum	Inhibition	93
Clc1ccc2c(NN=Cc3ccccc3)ccnc2c1	Plasmodium falciparum	Inhibition	100
CC(C)(C)c1ccc(CN2CCC(NC(=O)c3cc(-c4cccc(C(F)(F)F)c4)cs3)C2)cc1.O=C(O)C(F)(F)F (stereo not drawn)	Plasmodium falciparum	Inhibition	98
Cl.N=C(N)c1ccc(C=CC(=O)NCC(O)CNC(=O)C=Cc2ccc(C(=N)N)cc2)cc1 (stereo not drawn)	Plasmodium falciparum	Inhibition	90
COc1ccc(-c2cc(C(=O)N[C@@H](CC3CCCCC3)C(=O)NCCN3CCCC3)ccc2O)cc1	Plasmodium falciparum	Inhibition	90

* * *

Below: a set of entries, each annotated with reported Inhibition.
- Tested on: Plasmodium falciparum
- assaySummary: GSK_TCMDC: Inhibition of Plasmodium falciparum Dd2 in whole red blood cells, using parasite LDH activity as an index of growth. Test compounds present at 2uM
- Assay type: functional

smi	Inhibition
Cc1cc(N[C@@H](Cc2ccccc2)C(=O)NCCc2ccccc2)nc(NCCc2cccs2)n1.O=C(O)C(F)(F)F	84%
COc1ccc2nccc([C@@H](O)CN3CCC(NC(=O)/C=C/c4cccc(C)c4)CC3)c2c1	28%
Cc1cccc(Nc2nccc(Nc3cccc(C(=O)NCCN4CCOCC4)c3)n2)c1	11%
COc1cc2c(C3CCN(CC4CCN(C(=O)/C=C/c5ccc(Cl)c(Cl)c5)CC4)CC3)c[nH]c2cn1	88%
CN(C)Cc1ccc(-c2cccc(NC(=O)c3ccc(Cl)cc3)c2)cc1.O=C(O)C(F)(F)F	13%

* * *

Below: a set of entries, each annotated with reported Inhibition.
- System: Plasmodium falciparum
- assaySummary: GSK_TCMDC: Inhibition of Plasmodium falciparum Dd2 in whole red blood cells, using parasite LDH activity as an index of growth. Test compounds present at 2uM
- Format: functional
readoutName: Inhibition (%)

compound	quantitativeReadout
CCN(CC(C)O)C(=O)c1ccc(-c2cccc(-c3nc4cccc(C)c4[nH]3)c2)cc1 (centres undefined)	32
ON=C(c1nc2ccccc2[nH]1)c1nc2ccccc2[nH]1	68
CC(=O)Nc1ccc(Nc2cc(C)nc(Nc3ccc(NC(C)=O)cc3)n2)cc1	65
NCc1ccc(CNCc2cccc(-c3cccc(-c4nc5cc(F)ccc5[nH]4)c3)c2)cc1.O=C(O)C(F)(F)F	34
COc1ccc(C(=O)CC(=O)c2ccc(OC)cc2OC)c(OC)c1	0
COc1ccccc1Cn1ccnc1SCC(=O)Nc1cccc(C(F)(F)F)c1	73
CC(Cc1ccc(NC(=O)COc2ccc(CC(C)NCCc3cccc(Cl)c3)cc2)cc1)NCCc1cccc(Cl)c1 (centres undefined)	98
Oc1cccc2ccc(Nc3ccccn3)nc12	93
COc1ccc(OCCn2cc(C(=O)c3ccco3)c3ccccc32)cc1	61
Oc1ccc(CCNc2nc(N/N=C/c3ccc(Cl)cc3)nc(N3CCNCC3)n2)cc1	68
COc1ccc(C(=O)C2CCN(CCCCNC(=O)c3ccc(NC(=O)c4cc(Cl)cc(Cl)c4)cc3)CC2)cc1	84
CCCCN1CCN(c2cc(NS(=O)(=O)c3cccc(C(=O)Nc4ccc(C(F)(F)F)cc4)c3)ccc2OC)CC1.O=C(O)C(F)(F)F	7
CCOC(=O)CCCCOc1c(OC)cc(Cc2cnc(N)nc2N)cc1OC	0
C[C@@H](C(=O)N1CCOCC1)N1CC[C@H](NS(=O)(=O)c2ccc3ccnc(N)c3c2)C1=O.O=CO	61
O=C(Nc1ccc(Oc2ccccc2)cc1)N(Cc1ccc(-c2ccc(CN3CCNCC3)cc2)cc1)C1CCN(Cc2ccccc2)CC1.O=C(O)C(F)(F)F	73
CCOC(=O)c1ccc(NC(=O)Nc2ccc(-c3cccc(-c4nc5ccccc5[nH]4)c3)cc2)cc1	99
CCOc1cc(C)ccc1C1CCN(CCCCNC(=O)c2ccc(NC(=O)c3cc(Cl)cc(Cl)c3)cc2)CC1	78
OC(CN1CCN(C2CCCCC2)CC1)Cn1c2ccccc2c2cc(Br)ccc21 (centres undefined)	89
CCNc1cc(C(=O)N[C@@H](Cc2ccccc2)[C@H](O)CNC(C)(C)CCCC(C)C)cc(N2CCCC2=O)c1.O=CO	81

* * *

- Test system: Plasmodium falciparum
- assaySummary: GSK_TCMDC: Inhibition of Plasmodium falciparum Dd2 in whole red blood cells, using parasite LDH activity as an index of growth. Test compounds present at 2uM
- Type: functional

molecule	Inhibition [%]
N=C(NCCCCCCNC(=N)NC(=N)c1ccc(Cl)cc1)NC(=N)c1ccc(Cl)cc1	99
C[C@H](NC(=O)c1cc(-c2ccc(C(C)(C)C)cc2)no1)C(=O)O.C[C@H](NC(=O)c1conc1-c1ccc(C(C)(C)C)cc1)C(=O)O	97
Cc1cc(NC(=O)NCCN2CCC(NS(=O)(=O)c3cccc(Br)c3)C2)c2ccccc2n1.O=C(O)C(F)(F)F (stereo not drawn)	58
O=C(/C=C/c1ccc(Cl)c(Cl)c1)NCCCCCN1CCC(NC(=O)c2ccc(F)cc2)CC1	13
O=C(NC1CC1)c1cnc(N2CCN(Cc3c(F)cccc3Cl)CC2)c(Cl)c1.O=C(O)C(F)(F)F	93
FC(F)(F)c1ccc(/C=C/c2cncnc2Nc2ccc3[nH]c(Cc4ccccc4)nc3c2)cc1	100
CCCCNCc1ccc(-c2nc(CN(Cc3ccc(Cl)c(Cl)c3)S(=O)(=O)c3ccc(NC(C)=O)cc3)cs2)cc1.O=C(O)C(F)(F)F	20
CCCCCCn1c(Sc2ccc(C#N)c([N+](=O)[O-])c2)nnc1-c1ccc(Cl)cc1	48

* * *

- Tested on: Plasmodium falciparum
- assaySummary: GSK_TCMDC: Inhibition of Plasmodium falciparum 3D7 in whole red blood cells, using parasite LDH activity as an index of growth. Test compounds present at 2uM
- Format: functional
Below: a set of entries, each annotated with reported Inhibition.

compound	Inhibition, %
Cl.Oc1ccc(-c2cc(COc3ccccc3C(F)(F)F)c(C3=CCNCC3)cc2COc2ccccc2C(F)(F)F)cc1	100
CC(C)CCN1CCCN(Cc2ccc(C(=O)Nc3ccc(F)c(F)c3)cc2)CC1.O=C(O)C(F)(F)F	88
COc1cccc2c(NN=Cc3ccc(Cl)cc3)ccnc12	99
O=C(NC1CCN(CC2(c3ccccc3)CCCC2)CC1)c1n[nH]cc1Cl	83
COc1cc(Nc2nc(N)n(C(=O)c3ccc4c(c3)OCO4)n2)cc(OC)c1OC	90
CS(=O)(=O)NCCCNCc1ccc(-c2cccc(-c3nc4cc(C(F)(F)F)ccc4[nH]3)c2)cc1.O=C(O)C(F)(F)F	100
CCCCCCN1CCCN(Cc2ccc(C(=O)Nc3ccc(C(C)(C)C)cc3)cc2)CC1.O=C(O)C(F)(F)F	100
CC(C)[C@H](NC(=O)c1ccc(O)c(-c2ccc(Cl)c(Cl)c2)c1)C(=O)NCCN(C)C	92
COc1ccc(NC(=O)c2ccc(Br)c(C)c2)cc1N1CCN(CCCCc2ccccc2)CC1.O=C(O)C(=O)O	88
CCNc1cc(C(=O)N[C@@H](Cc2ccccc2)[C@H](O)CNC(C)(C)CSCC(C)C)cc(N2CCCC2=O)c1	100
Cc1n[nH]c2ccc(-c3ccc4nccc(N5CCC(N)CC5)c4c3)cc12.Cl	100
N#Cc1ccc(NC(=O)NC2CCN(CCCCCNC(=O)/C=C/c3ccc(Cl)c(Cl)c3)CC2)cc1	98
CCc1ccccc1NC(=O)CN1CCN(c2ncnc3scc(-c4ccc(F)cc4)c23)CC1	83
Cc1cnc(NCC2CCCCC2)nc1NCC(=O)Nc1ccccc1.O=C(O)C(F)(F)F	90
Cc1ccc2nc3sc(C(=O)NCCCN4CCC(N5CCCCC5)CC4)cc3cc2c1	100
O=C(C=Cc1ccc(Cl)c(Cl)c1)NCCCCCN1CCC(CCCNC(=O)c2ccc3c(c2)OCO3)CC1	98
CCCCCCC1(C)N=C(N)N=C(N)C1c1ccc(Cl)c(Cl)c1.Cl (stereo not drawn)	94
CN1CCC(C(=O)Nc2cccc(-c3ccc(-c4nc5cc(C(F)(F)F)ccc5[nH]4)s3)c2)CC1	100
